- Tested on: PPARg homodimer (NR concentration 180 nM)
- Test method notes: PBM binding z-score (relative to random genomic background probes); higher = stronger binding; sequences stand for … in GC…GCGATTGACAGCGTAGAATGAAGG
Assay metric: PBM binding z-score
Reply: number alone, nothing else.

These recorded examples may help you get a feel for the data.
> print(dat)
                     monomer.sequence  reported.value
1  CAAACTAGGTCAAGAGGTCAAGGTCCGCTTCCCG            5.33
2  GCAGACAGGTGAAACCCAGGTAACTCAGGGTGGC          -0.871
3  ACTCGGAGGACAAAGGCCAGAGCTACGCCAGTGA          -0.117
4  CGAACTAGGTCATTGACAGAACAGTGAATAGTAA            1.37
5  CCGACTGGGGCTTAAGGTTACCATAAGCCAGCCC           0.217
6  CAGTCTAGGTCAGGGCCAGTATAGGAGGAACGTT            1.53

## Task # lookup: PBM binding z-score of TCATATAGGTAAAGGTGTAAGTCGAACGATATGA
## Result 0.612

## Task Repeat with CCGACTGGGGCCTAAGGTTACCATAAGCCAGCCC
## Result 0.088

## Task Repeat with GCTGCTAGGGCAGGTTGGTCAGCTAACGGGTACG
## Result -0.535

## Task Repeat with CAAACTAGGTCACCGGAAGGTCAAAGTCCGCATG
## Result 6.37

## Task Repeat with CCTCGGAGGACAACAGGAGGTCTGAGCTGCCAGA
## Result -0.258

## Task Repeat with TCTGGTAGGTCAGTTGGTCAGCTAACGAGCTGCC
## Result 1.33

## Task Repeat with CGTACTAGGTCAAGGACAGTGAATCTCCGCACGC
## Result 2.34

## Task Repeat with CCTACTGGGCCAAAAAGGTCATCGATGCCGATAA
## Result 3.39

## Task Repeat with TCTAGGAGGCCAGAGGGTCACTCAAGAGGTACGG
## Result 0.662

## Task Repeat with CGTCCAAGGTCAAGGTCAGTGTAAGAGACTCGAA
## Result 3.45

## Task Repeat with ACTAGCAGGCCGAGGGTCACTCAAGATTAGTCCG
## Result 0.902

## Task Repeat with TCTATTAATTGATTAGGGCAACCGAAACAGCGGA
## Result 2.22

## Task Repeat with ACTAGCAGGCCAAGGGTCACTCAAGATTAGTCCG
## Result 2.65

---

- Test system: RARa:RXR (NR concentration 270 nM, RXRa partner concentration 90 nM)
- Test method notes: PBM binding z-score (relative to random genomic background probes); higher = stronger binding; sequences stand for … in GC…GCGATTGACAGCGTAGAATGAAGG
Assay metric: PBM binding z-score
Reply: number alone, nothing else.

These recorded examples may help you get a feel for the data.
> print(dat)
                     monomer.sequence         assay.metric  reported.value
1  TGTCAAAGTTCAAAGGTAACGTTAGTATCCACAC  PBM binding z-score            6.71
2  ATCTCTAGGTAACAAATTCAGTGAAAGAGAGGAC  PBM binding z-score           0.657
3  CAAACTAGGTCAAGCTCAAAGTCGGTTTGTGCCA  PBM binding z-score            2.52
4  CTCGAAAGGACGTGCTCAGGTGAGTATACCAAAC  PBM binding z-score          0.0274
5  ATCGAAAGGTCGTGAGGCGAGTATACAGAAAGGC  PBM binding z-score            3.69
6  CCTAGCAGGCCTGGGTCACTCAAGCATTTCGCTT  PBM binding z-score            1.16
7  AGATCGAGGGCAATGAGTTGATAGCACGGGTGGC  PBM binding z-score           0.437
8  GTACCAAGGTGAATTGGTCGTTGATGAGTAGGCG  PBM binding z-score           -0.15

## Task # lookup: PBM binding z-score of AATACAGGGTCATCGTAGCCCAGAGTACGCACAG
## Result 4.59

## Task Repeat with TCATATAGGTAATACAGGCGAAAGTCGGCATCTA
## Result 0.48

## Task Repeat with GCTCGGAGGACCAGGTCAGAGCTTTGTCCGTAGA
## Result 0.505

## Task Repeat with CGTCACAGTTCAACTAAGGTAACGTAAAGCACGC
## Result 2.28
